Known IC50 of a selection of compounds
- assay-target: AHR (Mus musculus)
- test-protocol: In vitro assay 3: antagonism in mouse cell line (AHR transactivation, firefly luciferase reporter, kynurenic acid prestimulated)
- Assay type: cell-based
- experimental-parameters: mouse Hepa 1c1c7 cells, 200 μM kynurenic acid, 20 hours, read-out: AHR Antagonism Mouse IC50

O=C1NCCCC[C@H]1Nc1nc2ccccc2c2nc(-c3ccccc3F)nn12 [Example 55] | 15.7 nM

Query: IC50; subject: O=C1NCCCC[C@@H]1Nc1nc2ccccc2c2nc(-c3cccc(OC(F)(F)F)c3)nn12 [Example 315]
50.8 nM

Input CC[C@H](Nc1nc2ccccc2c2nc(-c3cccc(OC(F)(F)F)c3)nn12)C(N)=O [Example 448]
134 nM

Input COC(=O)c1cccc2nc(N[C@@H]3CCCCNC3=O)n3nc(-c4ccc(OC)cc4)nc3c12 [Example 252]
49.8 nM

Input CC(C)Oc1ccc(-c2nc3c4ccccc4nc(N[C@@H]4CNCCNC4=O)n3n2)cc1 [Example 415]
6.47 nM

Input COc1ccc(-c2nc3c4cccc(C)c4nc(N[C@H]4CCCCNC4=O)n3n2)cc1 [Example 144]
62.7 nM

Input O=C1NCCNCC1Nc1nc2cccc(Br)c2c2nc(-c3ccc(F)cc3)nn12 (centres unmarked) [Example 282]
26.9 nM

Input CC(C)Oc1ccc(-c2nc3c4ccccc4nc(N[C@@H]4CCCCNC4=O)n3n2)cc1F [Example 632]
0.784 nM

###

- assay-target: AHR (Mus musculus, UniProt P30561)
- test-protocol: In vitro assay 3: antagonism in mouse cell line (AHR transactivation, firefly luciferase reporter, kynurenic acid prestimulated)
- Type: cell-based
- experimental-parameters: mouse Hepa 1c1c7 cells, 200 μM kynurenic acid, 20 hours, read-out: AHR Antagonism Mouse IC50
- Description: Examples were tested in selected biological assays one or more times. […] Firefly luciferase activity was determined by the SteadyGlo Luciferase Assay System (Promega, #E2550).
pIC50: −log10 of the molar value.
Assign true (1) to entries whose pIC50 meets or exceeds 7; assign false (0) to the rest.

O=C1NCCCC[C@@H]1Nc1nc2ccccc2c2nc(-c3ccccc3)nn12 | true (1)
CCNC(=O)C(CC)Nc1nc2ccccc2c2nc(-c3cccc(OC(F)(F)F)c3)nn12 (centres unmarked) [Example 318] | true (1)

Can Cn1cc(-c2nc3c4cccc(C(F)(F)F)c4nc(N[C@@H]4COCCNC4=O)n3n2)cn1 be said to have pIC50 at or above 7?
true (1)

Input O=C1NCCCC[C@H]1Nc1nc2ccccc2c2nc(-c3ccc(Cl)cc3OC(F)(F)F)nn12
true (1)

Input COc1ccc(-c2nc3c4ccccc4nc(N[C@@H](CCCCNC(=O)OC(C)(C)C)C(N)=O)n3n2)cc1
false (0)

Input O=C1NCCCCCC1Nc1nc2ccccc2c2nc(-c3ccccc3OC(F)(F)F)nn12 (centres unmarked)
true (1)

Input O=C1NCCCC[C@H]1Nc1nc2ccccc2c2nc(-c3ccc(F)c(F)c3)nn12
true (1)

###

- assay-target: AHR (Mus musculus, UniProt P30561)
- Sequence (P30561 1-848 P471L/N533S/M589L): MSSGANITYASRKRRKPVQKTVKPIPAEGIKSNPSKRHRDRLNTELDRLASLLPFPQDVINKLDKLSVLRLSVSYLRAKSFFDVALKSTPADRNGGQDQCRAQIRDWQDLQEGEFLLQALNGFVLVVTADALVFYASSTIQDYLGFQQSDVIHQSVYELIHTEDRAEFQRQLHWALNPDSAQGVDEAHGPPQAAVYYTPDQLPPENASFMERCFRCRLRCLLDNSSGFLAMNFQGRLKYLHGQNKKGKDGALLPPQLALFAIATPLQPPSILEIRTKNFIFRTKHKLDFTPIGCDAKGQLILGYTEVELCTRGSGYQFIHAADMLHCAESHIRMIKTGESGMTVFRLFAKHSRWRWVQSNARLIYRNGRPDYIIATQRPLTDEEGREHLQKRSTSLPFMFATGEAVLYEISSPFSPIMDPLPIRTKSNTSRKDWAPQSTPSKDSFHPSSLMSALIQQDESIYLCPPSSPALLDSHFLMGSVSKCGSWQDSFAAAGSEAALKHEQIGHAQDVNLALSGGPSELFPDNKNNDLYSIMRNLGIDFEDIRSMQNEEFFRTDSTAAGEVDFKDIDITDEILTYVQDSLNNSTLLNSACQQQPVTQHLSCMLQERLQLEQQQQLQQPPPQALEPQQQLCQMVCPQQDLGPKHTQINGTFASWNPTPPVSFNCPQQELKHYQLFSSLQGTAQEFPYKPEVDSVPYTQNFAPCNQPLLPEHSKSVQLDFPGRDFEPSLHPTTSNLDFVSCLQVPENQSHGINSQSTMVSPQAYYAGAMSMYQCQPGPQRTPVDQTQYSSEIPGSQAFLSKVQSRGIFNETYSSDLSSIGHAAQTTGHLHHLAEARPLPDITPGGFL
- test-protocol: In vitro assay 3: antagonism in mouse cell line (AHR transactivation, firefly luciferase reporter, kynurenic acid prestimulated)
- Assay type: cell-based
- experimental-parameters: mouse Hepa 1c1c7 cells, 200 μM kynurenic acid, 20 hours, read-out: AHR Antagonism Mouse IC50
pIC50: −log10 of the molar value.
Assign label 1 to entries whose pIC50 meets or exceeds 7; assign label 0 to the rest.

Recorded results for 2 molecules are shown here.
COc1cccc(-c2nc3c4ccccc4nc(NC4CCCNC4=O)n3n2)c1 (single isomer, unassigned) [Example 119] | label 0
O=C1NCCNCC1Nc1nc2cccc(C3CC3)c2c2nc(-c3cccc(F)c3)nn12 (single isomer, unassigned) [Example 300] | label 0

Can CC[C@@H](Nc1nc2ccccc2c2nc(-c3ccsc3)nn12)C(N)=O be said to have pIC50 at or above 7?
label 1

Input Cc1sccc1-c1nc2c3ccccc3nc(N[C@@H]3CCN(C)C3=O)n2n1
label 1

Input COc1ccc(-c2nc3c4c(C5CC5)cccc4nc(N[C@@H]4CCCCNC4=O)n3n2)cc1
label 1

Input CS(=N)(=O)c1ccc(-c2nc3c4ccccc4nc(N[C@@H]4CCCCNC4=O)n3n2)cc1 (single isomer, unassigned) [Example 308]
label 1

Input CS(=O)(=O)c1ccc(-c2nc3c4ccccc4nc(N[C@@H]4CCNC4=O)n3n2)cc1
label 0

Cited source for all entries: patent US20230113037A1
